B1: glmS ribozyme (parent)
chain: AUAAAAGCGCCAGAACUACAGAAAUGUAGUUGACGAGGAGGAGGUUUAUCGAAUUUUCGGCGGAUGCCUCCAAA

# Variants of: B1
# procedure.text: self-cleavage kobs at 10000 uM GlcN6P; higher = faster cleavage; RNA array
# experimental.context: with glucosamine-6-phosphate
Variants at the floor of the assay were thinned out.

{"columns": ["variant.id", "bound.sign", "self-cleavage kobs at 10000 uM GlcN6P (s⁻¹)"],
 "data": [
  ["U56A U57G", "=", 0.000102],
  ["A33G G41A", "<", "1e-05"],
  ["A12U U57C", "=", 0.00126],
  ["C8G U30A", "<", "1e-05"],
  ["G35U G60U", "<", "1e-05"],
  ["A15C C70U", "=", 0.00871],
  ["C10U G51U G60U", "<", "1e-05"],
  ["A6G A12U U65G", "=", 0.000137],
  ["G40A C71U", "=", 0.0591],
  ["G26U U54A", "=", 0.0333],
  ["G44A G51A U65G C67G", "<", "1e-05"],
  ["U31C A36G A39G U47C", "<", "1e-05"],
  ["U45A G62A", "<", "1e-05"],
  ["A15C U47A", "=", 0.00367],
  ["U30G U47C C68U", "=", 0.000171],
  ["A12G A14U G38A", "<", "1e-05"],
  ["A14G U30A G41U C68A", "<", "1e-05"],
  ["A36U U46A", "<", "1e-05"],
  ["C8G G51U G59U", "<", "1e-05"],
  ["U30C U54A", "=", 0.000378],
  ["G29A A64G C67G", "=", "5.14e-05"],
  ["G13A G63U", "<", "1e-05"]
]}
